meta.source: patent US11001850B2

- Tested on: CYP90B27 (cholesterol 22-hydroxylase)
- protocol.notes: Substrate testing of CYP90B27 (cholesterol 22-hydroxylase) co-expressed with CPR in Sf9 cells
- Format: biochemical, Veratrum californicum
- Design: key: Production of a detectable product is indicated by a (+)
- condition.parameters: 7.5 μM substrate, crude Sf9 cell suspension with CPR, 1.25 mM NADPH, 30° C. for 2 hours, GC-MS or LC-MS/MS
quantity.name: Production of a detectable product (substrate testing), CYP90B27

{"compound": "CC(C)CC[C@@H](O)[C@@H](C)[C@H]1CC[C@H]2[C@@H]3CC=C4C[C@@H](O)CC[C@]4(C)[C@H]3CC[C@]12C [22(R)-hydroxycholesterol]", "value.reported": "+"}
{"compound": "C[C@@H](CO)CCC[C@@H](C)[C@H]1CC[C@H]2[C@@H]3CC=C4C[C@@H](O)CC[C@]4(C)[C@H]3CC[C@]12C [26-hydroxycholesterol]", "value.reported": "+"}
{"compound": "CC(C)CCC[C@@H](C)[C@H]1CC[C@H]2[C@@H]3CC=C4C[C@@H](O)CC[C@]4(C)[C@H]3CC[C@]12C", "value.reported": "+"}
{"compound": "CC(C)CCC[C@@H](C)[C@H]1CC[C@H]2[C@@H]3[C@@H](O)C=C4C[C@@H](O)CC[C@]4(C)[C@H]3CC[C@]12C [7β-hydroxycholesterol]", "value.reported": "+"}
